Readings of koff for the listed binders
Biological target: Adeno-associated virus serotype 9 (AAV9) (AAV9)
Test: SPR, AAV amine-coupled to CM5 chip, nanobody 1-50 nM as analyte

binder | koff [s⁻¹]
A4-M2 (A4-017 with an N-terminal methionine) (VHH) VHH: QVQLQESGGGLVQPGGSLRLSCAASGSIFSINLMGWYRQAPGKQRELVATITRGGNTNYAGSVKGRFTISRDNAKNTVYLQMNSLRPEDTAVYYCHVDEVRQSSWTTSNLWGQGTQVTVSS | 0.00013
A4-T1 (A4-017 with a C-terminal 6xHis tag) (VHH) VHH: VQLQESGGGLVQPGGSLRLSCAASGSIFSINLMGWYRQAPGKQRELVATITRGGNTNYAGSVKGRFTISRDNAKNTVYLQMNSLRPEDTAVYYCHVDEVRQSSWTTSNLWGQGTQVTVSS | 0.00012
A4-T2 (A4-017 with a C-terminal GGGGS linker followed by a 6xHis tag) (VHH) VHH: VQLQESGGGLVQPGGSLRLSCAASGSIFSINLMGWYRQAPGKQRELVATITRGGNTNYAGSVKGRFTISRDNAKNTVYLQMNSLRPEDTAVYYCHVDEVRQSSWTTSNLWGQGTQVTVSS | 0.0001
